Data provenance: ChEMBL document CHEMBL4190183

Experiment: Aqueous solubility of the compound in triple distilled water at 1 to 1000 uM after 2 hrs by nephelometric method
Type: physicochemical
readout.label: solubility kinetic at 2 h (µM)
The answer is to be given in µM; state only the numeric part.

Problem: Given CCOC(=O)C1=C(C)NC(=O)NC1c1cc(/C=N/NC(=O)Nc2cccc(OC)c2)c(O)c(C(C)(C)C)c1 (stereo unspecified) , state its recorded solubility kinetic at 2 h.
Result: 30

###

Tested on: HEK293
Test: Cytotoxicity against HEK293 cells assessed as cell death at 10 uM after 48 hrs by MTT assay relative to control
Format: cell-based
Settings: human, hek293, 48 h
Classify as follows. Reported Activity greater than or equal to 40%: Criterion met. Reported Activity below: Criterion not met.

Problem: Record CCOC(=O)C1=C(C)NC(=O)NC1c1cc(/C=N/NC(=O)Nc2ccc(Br)cc2)c(O)c(C(C)(C)C)c1 (centres undefined) ; criterion: Activity no lower than 40%. Met?
Result: Criterion not met

Problem: For this molecule, is measured Activity 40% or higher? CCOC(=O)C1=C(C)NC(=O)NC1c1cc(/C=N/NC(=S)Nc2ccc(Cl)cc2)c(O)c(C(C)(C)C)c1 (centres undefined)
Result: Criterion met

Problem: Confirm if Activity reported for the molecule CCOC(=O)C1=C(C)NC(=O)NC1c1cc(C)c(O)c(/C=N/NC(N)=S)c1 (centres undefined) is 40% or above.
Result: Criterion not met

Problem: Could you please find out whether CCOC(=O)C1=C(C)NC(=O)NC1c1cc(/C=N/NC(=S)NC)c(O)c(C(C)(C)C)c1 (centres undefined) has Activity that meets 40% or exceeds it?
Result: Criterion not met

Problem: Say whether CCOC(=O)C1=C(C)NC(=S)NC1c1cc(/C=N/NC(=O)Nc2ccc(Cl)cc2)c(O)c(C(C)(C)C)c1 (centres undefined) shows Activity of 40% or more.
Result: Criterion met

Problem: Given the entry CCOC(=O)C1=C(C)NC(=O)NC1c1cc(/C=N/NC(N)=S)c(O)c(C(C)(C)C)c1 (centres undefined) , answer whether its Activity meets or surpasses 40%.
Result: Criterion not met

Problem: Confirm if Activity reported for the molecule CCOC(=O)C1=C(C)NC(=S)NC1c1cc(/C=N/NC(=S)Nc2ccccc2)c(O)c(C(C)(C)C)c1 (centres undefined) is 40% or above.
Result: Criterion met

Problem: I'd appreciate it if you could say whether CCOC(=O)C1=C(C)NC(=O)NC1c1cc(/C=N/NC(=S)Nc2ccccc2)c(O)c(C(C)(C)C)c1 (centres undefined) has Activity at least equal to 40%.
Result: Criterion met

Problem: Tell me whether Activity is at least 40% here: CCOC(=O)C1=C(C)NC(=O)NC1c1cc(C)c(O)c(C=O)c1 (centres undefined)
Result: Criterion not met

Problem: Form field: Activity at least 40%? Entry: CCOC(=O)C1=C(C)NC(=O)NC1c1cc(C)c(O)c(/C=N/NC(N)=O)c1 (centres undefined)
Result: Criterion not met

Problem: Activity >= 40% for CCOC(=O)C1=C(C)NC(=O)NC1c1cc(C=O)c(O)c(C(C)(C)C)c1 (centres undefined) ?
Result: Criterion not met

Problem: # check: Activity of CCOC(=O)C1=C(C)NC(=O)NC1c1cc(C)c(O)c(/C=N/NC(=S)NC)c1 (centres undefined) is greater than or equal to 40%
Result: Criterion not met

Problem: Textbook exercise: given the entry CCOC(=O)C1=C(C)NC(=S)NC1c1cc(/C=N/NC(=O)Nc2ccccc2)c(O)c(C(C)(C)C)c1 (centres undefined) , state whether its Activity is greater than or equal to 40%.
Result: Criterion met

Problem: Could you tell me if the measured Activity of CCOC(=O)C1=C(C)NC(=O)NC1c1cc(/C=N/NC(N)=O)c(O)c(C(C)(C)C)c1 (centres undefined) reaches 40% or more?
Result: Criterion not met

Problem: Hi team, for CCOC(=O)C1=C(C)NC(=S)NC1c1cc(C)c(O)c(/C=N/NC(=O)Nc2ccc(Cl)cc2)c1 (centres undefined) , is the recorded Activity at or above 40%?
Result: Criterion met

Problem: Could you tell me if the measured Activity of CCOC(=O)C1=C(C)NC(=O)NC1c1cc(/C=N/NC(=O)Nc2ccc(F)cc2)c(O)c(C(C)(C)C)c1 (centres undefined) reaches 40% or more?
Result: Criterion met

Problem: Given CCOC(=O)C1=C(C)NC(=S)NC1c1cc(/C=N/NC(=S)Nc2ccc(Cl)cc2)c(O)c(C(C)(C)C)c1 (centres undefined) , state whether its Activity is at least 40%.
Result: Criterion met

Problem: I'd appreciate it if you could say whether CCOC(=O)C1=C(C)NC(=O)NC1c1cc(/C=N/NC(=O)Nc2cccc(OC)c2)c(O)c(C(C)(C)C)c1 (centres undefined) has Activity at least equal to 40%.
Result: Criterion not met

###

Biological target: DNA ligase 1 (Homo sapiens, UniProt P18858)
Sequence (P18858 whole entry): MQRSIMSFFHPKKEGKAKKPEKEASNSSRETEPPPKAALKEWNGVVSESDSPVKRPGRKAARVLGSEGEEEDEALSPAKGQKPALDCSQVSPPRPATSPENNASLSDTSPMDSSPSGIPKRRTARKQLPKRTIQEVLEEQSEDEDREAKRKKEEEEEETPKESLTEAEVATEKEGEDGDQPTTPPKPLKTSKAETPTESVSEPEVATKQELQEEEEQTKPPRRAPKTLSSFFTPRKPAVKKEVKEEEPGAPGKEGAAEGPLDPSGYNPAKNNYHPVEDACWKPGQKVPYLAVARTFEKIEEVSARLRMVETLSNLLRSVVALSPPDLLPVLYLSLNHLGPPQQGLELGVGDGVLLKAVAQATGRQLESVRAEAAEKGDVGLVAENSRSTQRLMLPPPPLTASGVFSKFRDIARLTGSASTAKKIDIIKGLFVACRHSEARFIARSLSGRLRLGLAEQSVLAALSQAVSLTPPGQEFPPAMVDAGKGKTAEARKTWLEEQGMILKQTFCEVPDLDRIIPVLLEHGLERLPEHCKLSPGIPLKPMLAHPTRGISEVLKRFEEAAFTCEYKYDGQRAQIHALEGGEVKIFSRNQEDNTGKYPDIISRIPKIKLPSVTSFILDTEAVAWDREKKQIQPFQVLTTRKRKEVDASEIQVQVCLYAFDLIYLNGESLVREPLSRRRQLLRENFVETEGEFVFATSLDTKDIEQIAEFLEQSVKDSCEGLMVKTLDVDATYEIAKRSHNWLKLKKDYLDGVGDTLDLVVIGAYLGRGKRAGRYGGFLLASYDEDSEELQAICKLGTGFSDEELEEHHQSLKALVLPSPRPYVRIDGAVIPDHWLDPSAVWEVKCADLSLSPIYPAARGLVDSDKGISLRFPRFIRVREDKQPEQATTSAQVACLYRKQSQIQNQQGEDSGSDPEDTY
Assay: Residual activity of human DNA ligase 1 expressed in Escherichia coli BL21(DE3)RP cells assessed as DNA ligation at 100 uM using fluorescently labelled ds nicked DNA as substrate after 30 mins by urea gel based imaging method relative to control
Consider the following molecules; for each one, report its ligation.
Your answer should be a plain number; it is taken to be in %.

Problem: Write down the reported ligation of CCOC(=O)C1=C(C)NC(=O)NC1c1cc(/C=N/NC(=S)Nc2ccc(Cl)cc2)c(O)c(C(C)(C)C)c1 (stereo not given) , test system: DNA ligase 1 (Homo sapiens, UniProt P18858).
Result: 19.1

Problem: Query for DNA ligase 1 (Homo sapiens, UniProt P18858): what ligation does the record show for CCOC(=O)C1=C(C)NC(=S)NC1c1cc(/C=N/NC(=O)Nc2ccccc2)c(O)c(C(C)(C)C)c1 (stereo not given) ?
Result: 19.1

Problem: API: value(readout=ligation, system=DNA ligase 1 (Homo sapiens, UniProt P18858)) for record CCOC(=O)C1=C(C)NC(=O)NC1c1cc(C)c(O)c(C=O)c1 (stereo not given)
Result: 23.1

Problem: # query: ligation | item CCOC(=O)C1=C(C)NC(=O)NC1c1cc(C)c(O)c(/C=N/NC(N)=S)c1 (stereo not given) | system: DNA ligase 1 (Homo sapiens, UniProt P18858)
Result: 15.9

Problem: Record lookup: for DNA ligase 1 (Homo sapiens, UniProt P18858), what ligation belongs to CCOC(=O)C1=C(C)NC(=O)NC1c1cc(/C=N/NC(=S)NC)c(O)c(C(C)(C)C)c1 (stereo not given) ?
Result: 19.2

Problem: Query the reported ligation for DNA ligase 1 (Homo sapiens, UniProt P18858); item: CCOC(=O)C1=C(C)NC(=S)NC1c1cc(/C=N/NC(=S)Nc2ccccc2)c(O)c(C(C)(C)C)c1 (stereo not given)
Result: 33.2

Problem: # value lookup — system DNA ligase 1 (Homo sapiens, UniProt P18858), readout ligation, item CCOC(=O)C1=C(C)NC(=O)NC1c1cc(C)c(O)c(/C=N/NC(N)=O)c1 (stereo not given)
Result: 35.7

Problem: # value lookup — system DNA ligase 1 (Homo sapiens, UniProt P18858), readout ligation, item CCOC(=O)C1=C(C)NC(=O)NC1c1cc(/C=N/NC(N)=S)c(O)c(C(C)(C)C)c1 (stereo not given)
Result: 19.6

Problem: // fetch DNA ligase 1 (Homo sapiens, UniProt P18858) ligation for CCOC(=O)C1=C(C)NC(=S)NC1c1cc(/C=N/NC(=O)Nc2ccc(Cl)cc2)c(O)c(C(C)(C)C)c1 (stereo not given)
Result: 22.9

Problem: Could you share what ligation was measured for CCOC(=O)C1=C(C)NC(=S)NC1c1cc(/C=N/NC(=S)Nc2ccc(C)cc2)c(O)c(C(C)(C)C)c1 (stereo not given) , tested on DNA ligase 1 (Homo sapiens, UniProt P18858)?
Result: 31.1

Problem: Can you look up ligation on DNA ligase 1 (Homo sapiens, UniProt P18858) for CCOC(=O)C1=C(C)NC(=O)NC1c1cc(C)c(O)c(/C=N/NC(=S)NC)c1 (stereo not given) ?
Result: 19.6

Problem: Request - read-out ligation | tested on DNA ligase 1 (Homo sapiens, UniProt P18858) | molecule CCOC(=O)C1=C(C)NC(=O)NC1c1cc(/C=N/NC(=O)Nc2ccc(F)cc2)c(O)c(C(C)(C)C)c1 (stereo not given)
Result: 15.3

Problem: State its ligation on DNA ligase 1 (Homo sapiens, UniProt P18858): CCOC(=O)C1=C(C)NC(=O)NC1c1cc(/C=N/NC(=O)Nc2ccc(Br)cc2)c(O)c(C(C)(C)C)c1 (stereo not given)
Result: 16

Problem: Record CCOC(=O)C1=C(C)NC(=O)NC1c1cc(/C=N/NC(=S)Nc2ccccc2)c(O)c(C(C)(C)C)c1 (stereo not given) : what is its ligation with DNA ligase 1 (Homo sapiens, UniProt P18858)?
Result: 12

Problem: Can you look up ligation on DNA ligase 1 (Homo sapiens, UniProt P18858) for CCOC(=O)C1=C(C)NC(=O)NC1c1cc(/C=N/NC(N)=O)c(O)c(C(C)(C)C)c1 (stereo not given) ?
Result: 22.4
